The origin of these recorded values is patent US20220073475A1.

ASSAY_METRIC: melting point

Known melting point results, listed for orientation:
INSERT INTO measurements (entry_smiles, reading) VALUES
  ('O=C(C[C@@H](Cc1ccc2ccccc2c1)n1cc(CNC(=O)CCc2ccccc2)nn1)NO', '150 to 151.4 °C'),
  ('Cc1ccc(S(=O)(=O)NCc2cn([C@@H](CC(=O)NO)Cc3ccc4ccccc4c3)nn2)cc1', '115.8 to 117.2 °C'),
  ('O=C(C[C@@H](Cc1ccc2ccccc2c1)n1cc(CNS(=O)(=O)c2ccccc2)nn1)NO', '137.4 to 138.8 °C'),
  ('COc1ccc(C(=O)NCc2cn([C@@H](CC(=O)NO)Cc3ccc4ccccc4c3)nn2)cc1', '178.3 to 179.6 °C');

input: // query melting point value for entry "O=C(C[C@@H](Cc1ccc2ccccc2c1)n1cc(CNC(=O)c2ccccc2)nn1)NO"
output: 192.8 to 194 °C

input: // query melting point value for entry "O=C(C[C@@H](Cc1ccc2ccccc2c1)n1cc(CNC(=O)c2ccc(C(F)(F)F)cc2)nn1)NO"
output: 198.9 to 200.4 °C
